# key: entry, value: IC50
TESTED_ON: recombinant human baculovirus-expressed GST-tagged FASN (Homo sapiens)
Construct: GST
ASSAY_OVERVIEW: FASN enzyme activity assay, fluorescence-based detection of CoA with CPM
Format: biochemical
DETAILS: 5 nM FASN, 150 μM NADPH, 10 μM acetyl-CoA, 25 μM malonyl-CoA, 90 minutes incubation; read-out: IC50 data for Compounds of Formulae I-V/V(a): Activity
Structures can show the parent of a compound that is named as a salt.
RESULT_TYPE: IC50

>  <COMPOUND>
CCC(=O)N1CCC(Oc2ccc(-c3cnc4ccoc4c3)cc2)CC1

>  <MEASURED_RESULT>
1000 to 10000 nM

$$$$
>  <COMPOUND>
COCCCOc1c(-c2ccc(OC3CCN(C(=O)[C@H]4CCCO4)CC3)cc2)ccc2cccnc12 [Example 187, HCl]

>  <MEASURED_RESULT>
1 to 99 nM

$$$$
>  <COMPOUND>
COc1cccc2ncc(-c3ccc(OC4CCN(C(=O)C5CC5)CC4)cc3)cc12

>  <MEASURED_RESULT>
1000 to 10000 nM

$$$$
>  <COMPOUND>
CC(C)Oc1c(-c2ccc(OC3CCN(C(=O)[C@H]4CCCO4)CC3)cc2)ccc2cccnc12 [Example 180, HCl]

>  <MEASURED_RESULT>
1 to 99 nM

$$$$
>  <COMPOUND>
O=C(C1CC1)N1CCC(Oc2ccc(-c3ccc(N4CCOCC4)nc3)cc2)CC1

>  <MEASURED_RESULT>
1000 to 10000 nM

$$$$
>  <COMPOUND>
Cc1c(-c2ccc(OC3CCN(C(=O)N4CCCO4)CC3)cc2)cnc2ccccc12

>  <MEASURED_RESULT>
1 to 99 nM

$$$$
>  <COMPOUND>
CCC(=O)N1CCC(Oc2ccc(-c3ccnc(Nc4ccccc4)c3)cc2)CC1

>  <MEASURED_RESULT>
1000 to 10000 nM

$$$$
>  <COMPOUND>
Cc1cc(-c2ccc(OC3CCN(C(=O)C4CC4)CC3)cc2)cn2ccnc12

>  <MEASURED_RESULT>
100 to 999 nM

$$$$

* * *

# key: entry, value: pIC50
TESTED_ON: recombinant human baculovirus-expressed GST-tagged FASN (Homo sapiens, UniProt P49327)
Construct: GST
Sequence (P49327 whole entry): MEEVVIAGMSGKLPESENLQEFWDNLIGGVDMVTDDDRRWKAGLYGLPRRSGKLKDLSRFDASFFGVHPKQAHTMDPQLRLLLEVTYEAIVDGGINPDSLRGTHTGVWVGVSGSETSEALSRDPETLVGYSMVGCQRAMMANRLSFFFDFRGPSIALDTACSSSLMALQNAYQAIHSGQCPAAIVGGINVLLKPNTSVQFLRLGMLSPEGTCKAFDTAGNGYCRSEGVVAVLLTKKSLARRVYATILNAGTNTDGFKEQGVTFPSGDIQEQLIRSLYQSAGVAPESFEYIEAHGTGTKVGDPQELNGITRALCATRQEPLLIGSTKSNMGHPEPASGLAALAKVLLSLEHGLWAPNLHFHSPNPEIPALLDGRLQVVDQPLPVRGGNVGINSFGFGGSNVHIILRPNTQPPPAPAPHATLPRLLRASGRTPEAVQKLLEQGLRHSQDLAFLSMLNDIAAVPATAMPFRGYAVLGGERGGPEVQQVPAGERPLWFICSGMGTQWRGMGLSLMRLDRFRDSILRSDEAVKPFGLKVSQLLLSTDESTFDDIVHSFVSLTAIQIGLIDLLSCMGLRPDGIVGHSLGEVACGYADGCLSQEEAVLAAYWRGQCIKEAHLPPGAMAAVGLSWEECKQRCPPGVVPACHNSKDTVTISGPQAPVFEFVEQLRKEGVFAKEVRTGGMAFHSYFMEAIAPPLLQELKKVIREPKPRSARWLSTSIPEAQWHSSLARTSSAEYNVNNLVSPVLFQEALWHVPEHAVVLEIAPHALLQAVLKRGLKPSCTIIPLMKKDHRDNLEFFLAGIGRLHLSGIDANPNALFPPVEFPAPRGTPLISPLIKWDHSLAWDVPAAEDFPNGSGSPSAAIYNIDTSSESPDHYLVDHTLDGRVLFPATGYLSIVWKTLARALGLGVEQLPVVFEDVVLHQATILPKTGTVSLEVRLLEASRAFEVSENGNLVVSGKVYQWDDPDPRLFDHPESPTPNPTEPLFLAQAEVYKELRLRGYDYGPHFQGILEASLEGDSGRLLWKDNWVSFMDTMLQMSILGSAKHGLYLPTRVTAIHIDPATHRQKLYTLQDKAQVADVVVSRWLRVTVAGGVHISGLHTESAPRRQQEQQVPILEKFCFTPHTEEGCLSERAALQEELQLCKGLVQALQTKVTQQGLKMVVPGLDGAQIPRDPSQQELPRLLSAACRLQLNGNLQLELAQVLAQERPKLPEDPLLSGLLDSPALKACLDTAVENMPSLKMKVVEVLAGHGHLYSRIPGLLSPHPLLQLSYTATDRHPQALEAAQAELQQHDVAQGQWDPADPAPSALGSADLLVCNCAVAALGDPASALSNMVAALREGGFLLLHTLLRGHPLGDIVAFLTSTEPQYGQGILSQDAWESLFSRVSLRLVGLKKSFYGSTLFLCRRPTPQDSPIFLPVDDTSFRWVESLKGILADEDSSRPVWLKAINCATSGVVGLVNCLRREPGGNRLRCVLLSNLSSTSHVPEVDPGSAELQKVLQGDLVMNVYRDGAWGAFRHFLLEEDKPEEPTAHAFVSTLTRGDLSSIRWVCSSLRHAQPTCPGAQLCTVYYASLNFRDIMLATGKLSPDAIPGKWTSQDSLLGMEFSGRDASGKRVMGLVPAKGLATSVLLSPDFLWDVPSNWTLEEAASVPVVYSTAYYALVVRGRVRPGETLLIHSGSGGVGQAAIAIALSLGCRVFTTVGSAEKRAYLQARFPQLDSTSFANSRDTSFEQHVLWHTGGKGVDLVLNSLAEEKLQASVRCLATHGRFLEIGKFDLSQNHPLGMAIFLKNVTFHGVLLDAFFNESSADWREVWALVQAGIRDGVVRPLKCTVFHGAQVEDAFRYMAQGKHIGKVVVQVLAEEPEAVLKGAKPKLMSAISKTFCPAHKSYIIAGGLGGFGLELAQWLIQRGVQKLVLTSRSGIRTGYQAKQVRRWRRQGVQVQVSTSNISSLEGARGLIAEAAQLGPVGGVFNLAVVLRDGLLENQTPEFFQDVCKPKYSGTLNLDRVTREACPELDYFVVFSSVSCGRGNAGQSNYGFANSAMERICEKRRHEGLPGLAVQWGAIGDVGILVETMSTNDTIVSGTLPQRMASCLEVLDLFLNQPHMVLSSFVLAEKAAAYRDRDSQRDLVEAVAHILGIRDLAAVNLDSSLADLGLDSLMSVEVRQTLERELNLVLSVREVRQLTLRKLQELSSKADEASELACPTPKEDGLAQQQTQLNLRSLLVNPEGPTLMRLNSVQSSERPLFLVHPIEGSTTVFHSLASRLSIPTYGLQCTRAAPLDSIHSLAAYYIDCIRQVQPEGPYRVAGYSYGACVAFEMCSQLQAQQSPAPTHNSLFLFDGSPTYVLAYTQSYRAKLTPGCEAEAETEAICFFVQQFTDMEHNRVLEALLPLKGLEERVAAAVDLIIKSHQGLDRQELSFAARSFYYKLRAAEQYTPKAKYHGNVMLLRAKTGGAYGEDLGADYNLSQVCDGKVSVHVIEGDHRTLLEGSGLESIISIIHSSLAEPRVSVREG
ASSAY_OVERVIEW: FASN enzyme activity assay, fluorescence-based detection of CoA with CPM
Format: biochemical
DETAILS: 5 nM FASN, 150 μM NADPH, 10 μM acetyl-CoA, 25 μM malonyl-CoA, 90 minutes incubation; read-out: IC50 data for Additional Compounds of Formulae I-V(a): Activity
pIC50: −log10 of the molar value. Where a name gives a salt, the structure may show the parent alone.

>  <COMPOUND>
Cc1c(-c2ccc(OC3CCN(C(=O)NCC(C)C)CC3)cc2)ccc2cccnc12 [Example 541, HCl]

>  <pIC50>
7.00 to 9.00

$$$$
>  <COMPOUND>
C=CCOC(=O)N1CCC(Oc2ccc(-c3ccc4cccnc4c3C)cc2)CC1 [Example 551, HCl]

>  <pIC50>
5.00 to 6.00

$$$$
>  <COMPOUND>
CCCONC(=O)N1CCC(Oc2ccc(-c3ccc4c(C)nccc4c3)cc2)CC1 [Example 584]

>  <pIC50>
7.00 to 9.00

$$$$
>  <COMPOUND>
Cc1c(-c2ccc(OC3CCN(C(=O)NOC(C)C)CC3)cc2)cnc2ccccc12 [Example 588]

>  <pIC50>
7.00 to 9.00

$$$$
>  <COMPOUND>
CCONC(=O)N1CCC(Oc2ccc(-c3ccc4ccnn4c3C)cc2)CC1 [Example 538]

>  <pIC50>
7.00 to 9.00

$$$$
>  <COMPOUND>
Cc1c(-c2ccc(OC3CCN(C(=O)C(C)(C)N)CC3)cc2)ccc2cccnc12 [Example 619]

>  <pIC50>
5.00 to 6.00

$$$$
>  <COMPOUND>
Cc1c(-c2ccc(OC3CCN(C(=O)CCN)CC3)cc2)ccc2cccnc12 [Example 623]

>  <pIC50>
5.00 to 6.00

$$$$
>  <COMPOUND>
Cc1c(-c2ccc(OC3CCN(C(=O)OC(C)(C)C)CC3)cc2)ccc2nccn12 [Example 605]

>  <pIC50>
5.00 to 6.00

$$$$
>  <COMPOUND>
CCCONC(=O)N1CCC(Oc2ccc(-c3ccc4cccnc4c3C)cc2)CC1 [Example 574]

>  <pIC50>
7.00 to 9.00

$$$$
>  <COMPOUND>
CCCNC(=O)N1CCC(Oc2ccc(-c3ccc4nccn4c3C)cc2)CC1 [Example 594]

>  <pIC50>
7.00 to 9.00

$$$$
>  <COMPOUND>
Cc1c(-c2ccc(OC3CCN(C(=O)NCC4CCC4)CC3)cc2)ccc2cccnc12 [Example 560]

>  <pIC50>
6.00 to 7.00

$$$$
>  <COMPOUND>
COCCNC(=O)N1CCC(Oc2ccc(-c3ccc4nccn4c3Cl)cc2)CC1 [Example 567]

>  <pIC50>
6.00 to 7.00

$$$$
>  <COMPOUND>
Cc1c(-c2ccc(OC3CCN(C(=O)NCCN4CCCC4)CC3)cc2)ccc2cccnc12 [Example 530, HCl]

>  <pIC50>
7.00 to 9.00

$$$$
>  <COMPOUND>
O=C(NO)N1CCC(Oc2ccc(-c3ccc4nccn4c3Cl)cc2)CC1 [Example 575]

>  <pIC50>
7.00 to 9.00

$$$$
>  <COMPOUND>
Cc1c(-c2ccc(OC3CCN(C(=O)NCC(F)(F)F)CC3)cc2)ccc2nccn12 [Example 606]

>  <pIC50>
5.00 to 6.00

$$$$
>  <COMPOUND>
Cc1nccc2cc(-c3ccc(OC4CCN(C(=O)NCC(C)C)CC4)cc3)ccc12 [Example 580]

>  <pIC50>
7.00 to 9.00

$$$$
>  <COMPOUND>
CCONC(=O)N1CCC(Oc2ccc(-c3cnc4ccccc4c3C)cc2)CC1 [Example 587]

>  <pIC50>
7.00 to 9.00

$$$$
